Source: patent US6221865A

In this section we review reported inhibition at 1 µM values for a set of molecules.
Target Or Test System: protein farnesyltransferase (Rattus norvegicus, UniProt Q02293+Q04631)
Construct: The enzyme is purified according to Reiss, Y., et al., Cell, 62: 81-88 (1990), utilizing steps one through three; from tissue; host or cells: rat brain
Test Protocol: Inhibition of farnesyltransferase (scintillation proximity assay, rat brain enzyme, biotin-K Ras B fragment substrate)
Format: biochemical
Protocol Conditions: read-out: % inhibition of farnesyltransferase at 1 × 10^-6 M; 1 × 10^-6 M (Table 2)
Where a name gives a salt, the structure may show the parent alone.
Give the number; % is assumed, so skip it.

Solved cases (5 shown):
- Molecule: "CSCC[C@H](NC(=O)c1ccc(S(=O)(=O)NCCN2CCOCC2)cc1-c1ccccc1C)C(=O)O [Example 775, lithium salt]"
  Measurement Units: "%"
  inhibition at 1 µM: 32
- Molecule: "CSCC[C@H](NC(=O)c1ccc(CCc2cnc(Oc3ccccc3)cn2)cc1-c1ccccc1C)C(=O)O [Example 813, lithium salt]"
  Measurement Units: "%"
  inhibition at 1 µM: 95
- Molecule: "Cc1ccccc1-c1cc(CN(C2CC2)C2(CC3CCCCC3)CCCC2)ccc1C(=O)N[C@@H](CCS(C)(=O)=O)C(=O)O"
  Measurement Units: "%"
  inhibition at 1 µM: 98
- Molecule: "CSCC[C@H](NC(=O)c1ccc(CN2CCCC(OCc3ccccc3)C2)cc1-c1ccccc1C)C(=O)O (stereo partly drawn)"
  Measurement Units: "%"
  inhibition at 1 µM: 88
- Molecule: "Cc1ccccc1-c1cc(CN(C2CC2)C2(CC3CCCCC3)CCC2)ccc1C(=O)N[C@@H](CCS(C)(=O)=O)C(=O)O"
  Measurement Units: "%"
  inhibition at 1 µM: 93

Proceeding to the next molecule to report its inhibition at 1 µM.
response.value for "CSCC[C@H](NC(=O)c1ccc(CN(C)C(C)(C)Cc2ccccc2)cc1-c1ccccc1C)C(=O)O" (field: inhibition at 1 µM) = 98

---

Target Or Test System: protein farnesyltransferase (Rattus norvegicus, UniProt Q02293+Q04631)
Construct: The enzyme is purified according to Reiss, Y., et al., Cell, 62: 81-88 (1990), utilizing steps one through three; from tissue; host or cells: rat brain
Test Protocol: Inhibition of farnesyltransferase (scintillation proximity assay, rat brain enzyme, biotin-K Ras B fragment substrate)
Format: biochemical
Protocol Conditions: 1 × 10^-7 M (Table 3)
Rule: % inhibition of farnesyltransferase at 1 × 10^-7 M of 90% or more gives 1.0; anything lower gives 0.0.

- Mol Smiles: "CSCC[C@H](NC(=O)c1ccc(CSc2ncnc3[nH]cnc23)cc1-c1ccccc1C)C(=O)O"
  Target Or Test System: "protein farnesyltransferase (Rattus norvegicus, UniProt Q02293+Q04631)"
  Cat: 0.0

Req: Reported % inhibition of farnesyltransferase at 1 × 10^-7 M at or above 90%? "CSCC[C@H](NC(=O)c1ccc(COCc2ccc(-c3ccc(C(F)(F)F)cc3)o2)cc1-c1ccccc1C)C(=O)[O-].[Li+]"
Resp: 1.0

Req: Reported % inhibition of farnesyltransferase at 1 × 10^-7 M at or above 90%? "CCSC[C@H](CC1CCCCC1)N(Cc1ccc(C(=O)N[C@@H](CCSC)C(=O)O)c(-c2ccccc2C)c1)C(=O)OC(C)(C)C"
Resp: 0.0

Req: Reported % inhibition of farnesyltransferase at 1 × 10^-7 M at or above 90%? "CSCC[C@H](NC(=O)c1ccc(CSc2nc3ccccc3[nH]2)cc1-c1ccccc1C)C(=O)O"
Resp: 0.0
